Data credit: PubChem BioAssay AID1159580

Assay: chemical genetic growth profiling, strain panel (AID 1159580);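 note: tested at 20 µM; growth read once vehicle control cultures reached saturation at 30 °C; 1 = growth at the plate median or of vehicle wells; lower values mean less growth of the strain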
Conditions: S. cerevisiae deletion strains, growth OD, locus YOL006C, strain TOP1, hits give low values
About 2,000 (36%) of roughly 5,500 compounds were called active. About 18% were inconclusive and are not listed. The list shows a part of the results.
Assign normalized growth to each entry below.
Numbers only.

Here's what some known entries look like.
INSERT INTO measurements (compound, quantity_kind, readout_number) VALUES
  ('Cc1c(Cl)cccc1Nc1ccccc1C(=O)O', 'normalized growth', 0.656),
  ('CC(=O)c1cnn(-c2ccccc2)c1C', 'normalized growth', 0.983),
  ('COC(=O)C1=CCCN(C)C1', 'normalized growth', 0.981),
  ('Cc1cc(NC(=O)c2c(-c3c(Cl)cccc3Cl)noc2C)c([N+](=O)[O-])cc1C', 'normalized growth', 0.987),
  ('C=C1C(C)C2C(Cc3ccccc3)NC(=O)C23OC(=O)/C=C/C(O)CCCC(C)C/C=C/C3C1O (stereo unspecified)', 'normalized growth', 1.03);

Field: normalized growth. Fill in for each record below.
1. Cc1ccc(Cl)c(Nc2ccccc2C(=O)O)c1Cl
2. CCN(CC)CCNC(=O)c1c(-c2c(Cl)cccc2Cl)noc1C

[0.697, 1.03]

Field: normalized growth. Fill in for each record below.
1. Nc1ccn(C2O[C@H](CO)[C@@H](O)[C@@H]2O)c(=O)n1 (stereo partly specified)
2. CC[N+](CC)(CC)CCOc1cccc(OCC[N+](CC)(CC)CC)c1OCC[N+](CC)(CC)CC
3. CC(C)NNC(=O)c1ccncc1
4. C=C1C(C)C2C(Cc3ccccc3)NC(=O)C23OC(=O)/C=C/C(=O)CCCC(C)C/C=C/C3C1O (stereo unspecified)

[1.05, 1.04, 1.04, 0.79]
